The reported numbers originate from paper PMC4336329.

- Target entity: human ether-à-go-go-related gene (hERG) potassium channel (human);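 further: peak tail current of the secondary pulse compared with the same well before compound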
- Sequence (Q12809 whole entry, looked up): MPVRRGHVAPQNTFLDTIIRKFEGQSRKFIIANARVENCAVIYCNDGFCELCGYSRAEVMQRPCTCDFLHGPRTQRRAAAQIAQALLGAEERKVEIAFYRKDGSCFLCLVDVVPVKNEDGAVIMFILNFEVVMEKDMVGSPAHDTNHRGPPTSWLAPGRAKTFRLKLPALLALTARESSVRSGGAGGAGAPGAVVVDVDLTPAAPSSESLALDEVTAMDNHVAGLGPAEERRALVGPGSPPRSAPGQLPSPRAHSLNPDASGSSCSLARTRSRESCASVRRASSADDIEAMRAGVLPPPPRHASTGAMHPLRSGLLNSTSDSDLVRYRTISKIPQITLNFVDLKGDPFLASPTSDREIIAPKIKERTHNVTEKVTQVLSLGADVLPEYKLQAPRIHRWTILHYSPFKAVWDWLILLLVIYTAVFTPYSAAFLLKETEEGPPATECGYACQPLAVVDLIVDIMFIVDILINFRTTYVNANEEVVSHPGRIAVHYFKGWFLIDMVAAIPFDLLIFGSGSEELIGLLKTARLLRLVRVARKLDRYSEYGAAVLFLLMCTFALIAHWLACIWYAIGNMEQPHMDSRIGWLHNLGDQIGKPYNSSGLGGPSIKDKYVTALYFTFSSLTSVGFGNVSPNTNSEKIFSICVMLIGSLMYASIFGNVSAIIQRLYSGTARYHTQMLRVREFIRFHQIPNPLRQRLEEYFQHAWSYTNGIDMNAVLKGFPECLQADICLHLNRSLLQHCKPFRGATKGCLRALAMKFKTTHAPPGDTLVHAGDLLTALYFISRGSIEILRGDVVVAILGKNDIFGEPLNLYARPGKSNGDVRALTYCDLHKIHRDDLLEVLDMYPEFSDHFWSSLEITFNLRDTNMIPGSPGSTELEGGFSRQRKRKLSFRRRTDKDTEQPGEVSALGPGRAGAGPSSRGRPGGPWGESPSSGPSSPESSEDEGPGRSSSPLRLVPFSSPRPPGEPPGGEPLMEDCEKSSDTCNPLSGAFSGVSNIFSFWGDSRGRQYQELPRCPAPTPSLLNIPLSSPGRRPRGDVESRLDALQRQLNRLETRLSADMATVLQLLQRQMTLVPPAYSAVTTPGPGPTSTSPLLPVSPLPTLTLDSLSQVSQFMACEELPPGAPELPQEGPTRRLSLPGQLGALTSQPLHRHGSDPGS
- Test summary: primary screen, population patch clamp on CHO cells stably expressing hERG; higher = less effect of the substance
Screen size: about 310,000 compounds; about 14,000 (4.5%) showed an effect of 50% or more. Effects have a minus sign here. Many of the other results were omitted from the sample, so strong results are more common in it than they were.
Value type: hERG current change (%, negative = inhibition) at 10uM

> print(dat)
                                   molecule   value
1  Cc1cc(C)cc(-n2ncc3c2CCCC3NC(=O)C2CCC2)c1 (centres unmarked)    -76%
2  N#C/C(=C/c1cccc(O)c1)C(=O)NCc1ccc(Cl)cc1     31%
3  Cc1cc(C)cc(-n2ncc3c2CCCC3NC(=O)C2(C(N)=O)CC2)c1 (centres unmarked)   13.7%
4   Cc1ccc(S(=O)(=O)Nc2ccc(-n3cnnn3)cc2)cc1  -1.93%

Then this molecule:
Entry Cc1ccccc1-n1ncc2c1CC(C)(C)CC2NC(=O)CCN1Cc2ccccc2C1=O (centres unmarked) has what hERG current change (%, negative = inhibition) at 10uM?
-3.54%

---

- Target entity: human ether-à-go-go-related gene (hERG) potassium channel (human);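 further: peak tail current of the secondary pulse compared with the same well before compound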
- Test summary: primary screen, population patch clamp on CHO cells stably expressing hERG; higher = less effect of the substance
Among all 310,000 compounds or so, about 14,000 (4.5%) showed an effect of 50% or more. The effect is printed as a negative number. Many of the other results were omitted from the sample, so strong results are more common in it than they were.
Please respond with reported hERG current change (%, negative = inhibition) at 10uM for every item in the list.
Quote the value and follow it with the unit of measurement.

Examples with their reported hERG current change (%, negative = inhibition) at 10uM follow.
> print(dat)
                           structure.string   value
1  O=C(c1cccc(S(=O)(=O)N2CCCCCC2)c1)N1CCN(c2ccccc2)CC1  -68.8%
2  Cc1ccc(NC(=O)c2cccc(S(=O)(=O)N3CCN(c4ccccc4)CC3)c2)nc1  -1.19%
3  Cc1ccc(C(=O)NCC(=O)OCC(=O)c2ccc3c(c2)NC(=O)CO3)cc1  -60.6%
4  C=CCn1c(SCC(=O)Nc2nccs2)nnc1-c1cc2cccc(OC)c2o1  -4.98%

Look up hERG current change (%, negative = inhibition) at 10uM: O=C(c1cccc(S(=O)(=O)N2CCOCC2)c1)N1CCN(c2ccccc2)CC1
-15.7%

---

- Target entity: human ether-à-go-go-related gene (hERG) potassium channel (human);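 further: peak tail current of the secondary pulse compared with the same well before compound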
- Test summary: primary screen, population patch clamp on CHO cells stably expressing hERG; higher = less effect of the substance
Screen size: about 310,000 compounds; about 14,000 (4.5%) showed an effect of 50% or more. Effects have a minus sign here. For the sample, strong results were picked, then their nearest neighbours and some compounds at random.
Value type: hERG current change (%, negative = inhibition) at 10uM (%)
One number for each entry, in %.

Look over these answered cases.
> print(dat)
                                   molecule  units.label  value
1   Cc1c(OCC(F)(F)F)ccnc1CSc1nc2ccccc2[nH]1            %   20.6
2          O=C(CCNNC(=O)c1ccncc1)NCc1ccccc1            %   9.98
3     O=[N+]([O-])c1cc(/C=N/O)ccc1Sc1ccccc1            %   13.7
4  COc1ccc(-n2nc(C(=O)NCC(=O)NCCCN3CCN(C)CC3)c3ccccc3c2=O)cc1OC            %   18.9
5  COc1ccc(C2=NN(C(=O)c3ccco3)C(c3cc4ccccc4nc3Cl)C2)cc1 (stereo not shown)            %   8.45

Please look at the items below and tell me hERG current change (%, negative = inhibition) at 10uM for each one, in order.
1. O=C(Cn1c(NCCO)nc2ccccc21)NCC(F)(F)F
2. CNC(=O)c1ccsc1NC(=O)c1ccc(Cl)s1
3. O=C(c1cc2ccccc2oc1=O)N(Cc1cccs1)Cc1cccs1
4. COCCNCCCCSc1ccc(Cl)cc1
5. CCN1C(=O)/C(=C2/C=CC=CN2C)SC1=S
6. O=[N+]([O-])c1ccc(Sc2cccc3cccnc23)c([N+](=O)[O-])c1

1. 10.4
2. -0.512
3. -14.4
4. -50.8
5. -35.2
6. 16.6

Report hERG current change (%, negative = inhibition) at 10uM for each item below.
1. COc1ccc(/C=C/c2nc(-c3ccccc3O)n[nH]2)cc1OC
2. O=c1[nH]c(Sc2ccc([N+](=O)[O-])cc2[N+](=O)[O-])nc2ccccc12
3. CC(C)OCCCNC(=O)NC(=O)c1ccc(Cl)cc1
4. COc1ccccc1C(=O)NCCC(=O)N(Cc1ccco1)Cc1cccs1
5. Cc1nc2ccccc2c(=O)n1NC(=O)/C=C/c1ccc(Br)cc1
6. Cn1nnnc1P(=O)(c1ccccc1)c1ccccc1

1. 12.1
2. 9.99
3. -6.21
4. -21.3
5. -1.3
6. 7.84

Provide the reported hERG current change (%, negative = inhibition) at 10uM of each entry below, same order.
1. COc1ccc(C(C)=O)c2c1OCCO2
2. COCCCNCCCCSc1ccc(Cl)cc1
3. CC1CCC2(CC1)NC(=O)N(NC(=O)c1cccs1)C2=O (stereo not shown)
4. Cc1ccc(S(=O)(=O)N2CCOC2CNC(=O)C(=O)NCCN2CCOCC2)cc1 (stereo not shown)
5. COC(=O)c1ccccc1NC(=O)Cn1nc2n(C)c3ccccc3n2c(=O)c1=O
6. COCC(=O)Nc1nnc(COc2ccc(Cl)cc2)s1
7. O=C(Nc1ccc(F)cc1)C1CCN(S(=O)(=O)c2cccs2)CC1
8. N#Cc1ccsc1NC(=O)C1CCN(S(=O)(=O)c2cccs2)CC1

-3.35
-37.9
9.08
10.6
-3.54
-0.556
-24.4
-20.2

Look at each molecule and report its hERG current change (%, negative = inhibition) at 10uM.
1. CCC1(C)Cc2ccccc2-c2nc(NCCCO)n(-c3ccccc3)c(=O)c21 (stereo not shown)
2. Cn1ncc(C(=O)Nc2ccc(Cl)cc2)c1C(F)(F)F
3. O=C(Nc1ccc(F)c(F)c1)C1CCN(S(=O)(=O)c2cccs2)CC1
4. Cc1ccc(CNC(=O)C2C3C=CC(C3)C2C(=O)O)cc1 (stereo not shown)
5. CCOC(=O)C1CCN(S(=O)(=O)c2ccc(Cl)s2)CC1
6. COc1cc(Cl)c(CN2CCCC(CO)(Cc3ccccc3F)C2)cc1OC (stereo not shown)

1: -48.6; 2: -12; 3: -53.7; 4: -3.26; 5: -13.3; 6: -20.1

Provide hERG current change (%, negative = inhibition) at 10uM values for the following items, in order.
1. COCCCNC(=O)CCSc1ccc(Cl)cc1
2. CCC(C#CCN1CCCCC1)(CC)OCCC#N

[-8.9, 2.57]

Batch request: hERG current change (%, negative = inhibition) at 10uM for each of the following molecules.
1. Cc1ccc(NC(=S)N2CCN(S(=O)(=O)c3c(F)cccc3F)CC2)cc1C
2. O=C(O)C(F)(F)F.O=C1C(Cc2ccccc2)Nc2ncnc(N3CCN(c4ccccc4)CC3)c2N1Cc1ccc(Cl)cc1 (stereo not shown)
3. CN1C=CC=C/C1=C1\SC(=S)N(C2CCCCC2)C1=O
4. COc1ccc(C(C)N2CC34C=CC(O3)C(C(=O)O)C4C2=O)cc1 (stereo not shown)
5. CNC(=O)c1ccsc1NC(=O)C1CCCN1S(=O)(=O)c1cccs1 (stereo not shown)
6. CC1(C)N=C(/C=N/O)CN1O
7. O=C1CC(NS(=O)(=O)c2ccc3ccccc3c2)CN1c1ccccc1 (stereo not shown)

[-17.6, 0.92, -52.3, 8.42, 7.6, 11.7, -0.798]
